# experimental.system: Drosophila OR85b (Drosophila melanogaster)
# Construct: expressed in transfected cells
# Sequence (Q9VHQ7 1-390): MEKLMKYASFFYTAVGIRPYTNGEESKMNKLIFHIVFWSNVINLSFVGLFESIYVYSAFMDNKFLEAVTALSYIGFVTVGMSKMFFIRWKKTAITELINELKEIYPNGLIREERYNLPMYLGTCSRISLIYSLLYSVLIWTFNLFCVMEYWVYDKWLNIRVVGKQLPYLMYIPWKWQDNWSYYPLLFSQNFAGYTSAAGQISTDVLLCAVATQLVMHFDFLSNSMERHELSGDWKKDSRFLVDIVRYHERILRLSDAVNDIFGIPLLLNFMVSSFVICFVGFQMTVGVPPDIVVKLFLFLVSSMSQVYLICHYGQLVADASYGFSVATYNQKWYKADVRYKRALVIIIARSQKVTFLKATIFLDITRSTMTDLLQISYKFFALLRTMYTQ
# Sequence (Q9VNB5 1-486 partner): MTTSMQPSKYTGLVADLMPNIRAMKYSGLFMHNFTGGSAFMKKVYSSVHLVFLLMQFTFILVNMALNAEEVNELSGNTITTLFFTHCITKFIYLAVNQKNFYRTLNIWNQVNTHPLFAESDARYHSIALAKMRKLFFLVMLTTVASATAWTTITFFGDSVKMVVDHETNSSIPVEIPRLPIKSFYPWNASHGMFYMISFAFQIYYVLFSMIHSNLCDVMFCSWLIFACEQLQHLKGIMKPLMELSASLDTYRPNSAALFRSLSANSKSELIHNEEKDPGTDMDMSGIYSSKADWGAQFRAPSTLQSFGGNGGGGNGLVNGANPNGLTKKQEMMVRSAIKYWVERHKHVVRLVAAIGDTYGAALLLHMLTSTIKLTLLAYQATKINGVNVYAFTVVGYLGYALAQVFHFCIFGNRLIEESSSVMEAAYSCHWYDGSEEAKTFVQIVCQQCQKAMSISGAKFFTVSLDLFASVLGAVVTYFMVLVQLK
# assay: Calcium ion fluorescence (GCaMP6) assay, OR85b stable HEK293 cell line
# Type: cell-based
# condition.details: OR85b cell line; cc. 1 µM; VUAA1-normalized response, mean of biological replicates
Measured Average response by item
Reply: number alone, nothing else.

Reference set, count: 4
compound="C=C(C)[C@H]1CC=C(C)CC1 [(R)-(+)-limonene]" value_measured=0.0426
compound="C=CC(O)C/C=C\\CC (stereo not shown)" value_measured=0.07
compound=CC/C=C/CCO value_measured=0.00
compound=CCCCCO value_measured=0.00

Requested field: Average response. Item: "CCCCCCCCCCC"
0.0284

Requested field: Average response. Item: "CC(=O)c1ccccc1"
0.00

Requested field: Average response. Item: C=C(C)C1CCC2(C)OC2C1 (single isomer, unassigned; (+)) [(+)-limonene oxide]
0.00

---

Measured DF norm AVERAGE OR71a by item
# experimental.system: Drosophila OR71a (Drosophila melanogaster)
# Construct: expressed in transfected cells
# Sequence (Q9VUK5 1-378): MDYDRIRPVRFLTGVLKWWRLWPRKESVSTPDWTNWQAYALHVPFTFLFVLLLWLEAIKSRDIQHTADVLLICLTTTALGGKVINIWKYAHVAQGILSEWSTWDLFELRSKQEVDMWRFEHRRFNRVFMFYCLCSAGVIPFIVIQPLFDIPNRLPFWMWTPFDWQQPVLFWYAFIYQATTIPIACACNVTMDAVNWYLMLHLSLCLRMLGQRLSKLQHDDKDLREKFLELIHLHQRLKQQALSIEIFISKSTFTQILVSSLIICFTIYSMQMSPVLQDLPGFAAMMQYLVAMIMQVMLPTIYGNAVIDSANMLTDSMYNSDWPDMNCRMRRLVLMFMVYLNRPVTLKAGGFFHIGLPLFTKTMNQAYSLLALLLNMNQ
# Sequence (Q9VNB5 1-486 partner): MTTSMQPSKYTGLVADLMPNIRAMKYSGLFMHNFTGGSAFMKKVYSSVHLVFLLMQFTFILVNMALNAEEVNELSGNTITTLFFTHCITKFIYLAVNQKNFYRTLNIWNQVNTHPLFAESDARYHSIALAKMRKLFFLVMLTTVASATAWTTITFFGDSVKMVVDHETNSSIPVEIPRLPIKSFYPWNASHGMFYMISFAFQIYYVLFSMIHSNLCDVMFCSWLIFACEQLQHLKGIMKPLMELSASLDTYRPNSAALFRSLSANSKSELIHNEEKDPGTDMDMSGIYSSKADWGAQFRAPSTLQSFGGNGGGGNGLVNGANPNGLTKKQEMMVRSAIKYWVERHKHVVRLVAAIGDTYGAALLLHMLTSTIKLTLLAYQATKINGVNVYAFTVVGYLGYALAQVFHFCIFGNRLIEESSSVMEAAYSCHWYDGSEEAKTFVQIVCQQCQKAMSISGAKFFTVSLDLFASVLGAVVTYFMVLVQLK
# assay: Calcium ion fluorescence (GCaMP6) assay, OR71a stable HEK293 cell line
# Type: cell-based
# condition.details: ligand concentration 100 (unit not given); threshold 0.05, below shown as 0

compound="COC(=O)c1ccccc1O [methyl salicylate]" value_measured=0.1155
compound=O=Cc1ccccc1 value_measured=0
compound="C=C1CCC2(C(C)C)CC12 (stereo not shown)" value_measured=0
compound="COC(=O)c1ccccc1 [methyl benzoate]" value_measured=0
compound="C=C1CCC2CC1C2(C)C (stereo not shown)" value_measured=0

Requested field: DF norm AVERAGE OR71a. Item: CCCCCOC(C)=O [pentyl acetate]
0.08698

Requested field: DF norm AVERAGE OR71a. Item: CCCC(=O)OCC [ethyl butyrate]
0
